Attribution: PubChem BioAssay (NCI)

- System: UACC-62 melanoma
- ASSAY INFO: NCI-60 one-dose screen, 48 h
- REPORTED CONDITIONS: 10 µM unless noted
- Protocol: Growth inhibition of the UACC-62 human tumor cell line is measured as a screen for anti-cancer activity. Cells are grown in 96 well plates and exposed to the test compound for 48 hours. Compounds are tested at a single concentration, which is 10^-5 M for most compounds. The reported endpoint is percent growth (GI% or GIPRCNT), where numbers from 0 - 100% represent growth inhibition, and numbers from -100% - 0 represent cell death. For example, a value of 40 represents 60% growth inhibition. […]
This is part of a sample that, as a whole, favours compounds with a hit. Of some 83,000 tested, about 20% had one in any assay. Active and inactive are the calls of the source. Rule for the calls: active = growth percent below 10; inactive = the rest.
In this exercise, the only acceptable responses are True (active), False (inactive)

Would you mind telling me which call this test gave "COc1ccccc1/C=C(/C(=O)c1ccccc1)c1ccccc1" ? False

Next entry: "Clc1ccc(-c2nnc(COc3ccccc3Cl)o2)cc1" False

Next entry: COc1cc(C2CC(=O)Nc3c2cnn3Cc2ccco2)cc2c1OCCO2 (stereo unspecified) False

Next entry: "CS(=O)(=O)c1ccc(-c2cnc3ccc(-c4cccc(S(C)(=O)=O)c4)nn23)cc1" False

Next entry: "O=[N+]([O-])c1cccc(-c2nc3sccn3c2-c2ccnc(NCCCNS(=O)(=O)c3ccc(Br)cc3)n2)c1" True

***
Would you mind telling me which call this test gave "Cc1cc2cc3cc(C)c(N(C)C)cc3nc2cc1N(C)C" ? False

Next entry: "CC(C)C1=C[C@@]23CC[C@@H]4[C@](C)(CCC[C@@]4(C)C(=O)OCC#CCN4CCCC4)[C@H]2C[C@@H]1[C@H]1C(=O)OC(=O)[C@H]13" False

Next entry: "CCCCCCCCCC(=O)Oc1ccc(/C(=C(/C)c2ccccc2)c2ccc(OCCN3CCCC3)cc2)cc1" True

Next entry: C=C1CCC2C3(C)COC(C)(C)OC3CCC2(C)C1C/C=C1/C(=O)OCC1OC(C)=O (stereo unspecified) False

Next entry: CC1CN(C(C)C)C(=S)N(c2ccccc2)C1=O (stereo unspecified) False

Next entry: CCN(CC)CC(O)c1cc(-c2ccc(Cl)cc2)nc2c(C)c(Cl)ccc12 (stereo unspecified) True

Next entry: "CC/C=C\C[C@H](O)C/C=C1/C(=O)C=C[C@@H]1C/C=C\CCCC(=O)OC(C)C" True

Next entry: CC1(C)OCC2OC3(C(=O)O)OC(C)(C)OC3C2O1 (stereo unspecified) False

Next entry: "CCCCN(CCCC)Cc1c(C)[nH]c2cc(OC)ccc2c1=O" False

Next entry: O=C(NC(Cc1ccccc1)C(=O)CCl)OCc1ccccc1 (stereo unspecified) False

Next entry: "O=C1c2ccccc2-c2nccc3cc(Cl)nc1c23" False

Next entry: CCCCCCCCCCCCCCCCCCNC(=O)[C@H]1CSC(c2ccc(OC)c(F)c2)N1 (stereo partly specified) True

Next entry: CCCCCCCCCCCCNC(=O)[C@H]1CSC(c2ccc(OC)c(F)c2)N1 (stereo partly specified) True

Next entry: COc1ccc(C2Nc3ccccc3-n3cccc32)cc1 (stereo unspecified) False

Next entry: "C(=N\Nc1nnn(Cc2ccccc2)n1)/c1ccccc1" False

Next entry: "CCCCCCCCCCCCCCCC[N+]1(CC)CCCC1" True

Next entry: "Cc1ccc(-c2nc(/C=N/Nc3cc(C)nc4ccc(Br)cc34)c(C)o2)cc1" False

Next entry: COc1cc(C2CC(=O)Nc3c2c(C)nn3-c2nc3ccccc3[nH]2)cc(OC)c1OC (stereo unspecified) False

Next entry: "CC[C@H](Nc1nc(N)nc(C)c1C#N)c1nc2cccc(NCc3ccc(C(=O)NO)cc3)c2c(=O)n1-c1ccccc1" True
